Entry source: PubChem BioAssay (NCI)

- Test system: HCC-2998 colon
- PROCEDURE_SUMMARY: NCI-60 one-dose screen, 48 h (100 = growth as untreated, 0 = no growth, -100 = all killed)
- TEST_CONDITIONS: 10 µM unless noted
Compounds without any hit were thinned out: in the full panel of roughly 83,000, 20% have a hit.
Just a reminder that ties go to Not satisfied: only growth strictly below 80% counts as Satisfied.

// known answers, use as guide
CC(C)(C)n1cc(-c2ccnc(NCCCNS(=O)(=O)c3cccc4ccccc34)c2)c(-c2cccc(O)c2)n1
Satisfied
Cc1ccc(C2CC3c4ccccc4C2C2CCCCN32)cc1 (stereo not given)
Not satisfied
Cn1c(=O)c2[nH]c(C(O)C(O)C(O)C(O)CO)nc2n(C)c1=O (stereo not given)
Not satisfied
O=C(O)c1cccnc1Br
Not satisfied
O=C(NCc1cccc(C(F)(F)F)c1)[C@H](CCC(=O)N1CCN(C2CCCCC2)CC1)N1C(=O)[C@@H](N2C(=O)OC[C@@H]2c2ccccc2)[C@H]1/C(Cl)=C/c1ccccc1
Satisfied

is_below(growth, 80%) for C/C=C/C(N)=O ?
Not satisfied

Try the compound CN(CC(=O)N(Cc1ccc(C2CCCCC2)cc1)c1ccc(C(=O)NO)cc1)S(=O)(=O)c1c(F)c(F)c(F)c(F)c1F
Not satisfied

Try the compound CS(=O)(=O)c1ccc(-c2cnc3ccc(-c4cccc(S(C)(=O)=O)c4)nn23)cc1
Satisfied

Try the compound CC(C)Oc1nc2c(c(=O)n(C)c(=O)n2C)n1C
Not satisfied

Try the compound COc1ccc2nc3cc(Cl)ccc3c(N3CCN(c4ccnc(N5CCN(C)CC5)n4)CC3)c2c1
Satisfied

* * *

- Tested on: COLO 205 colon
- PROCEDURE_SUMMARY: NCI-60 one-dose screen, 48 h (100 = growth as untreated, 0 = no growth, -100 = all killed)
- TEST_CONDITIONS: 10 µM unless noted
The panel holds about 83,000 compounds, 20% with a hit somewhere; the sample as a whole holds those more often.
ENDPOINT: growth (%)
One number for each entry, in %.

Examples with answers:
O=C1c2ccccc2-c2nccc3cc(Cl)nc1c23
54.7
Oc1ccc(Nc2nccc(-c3ccc4ccccc4c3)n2)cc1
98
Nc1nc2c(c3ncccc13)C(c1ccc(Cl)c(Cl)c1)Cc1ncccc1-2 (stereo not given)
1.52
Cc1ccc(-c2nc(/C=N/Nc3cc(C)nc4ccc(Cl)cc34)c(C)o2)cc1
-86
COc1ccc(-n2cc(-c3ccccc3)c3c(SCC(=O)N/N=C/c4ccc([N+](=O)[O-])cc4)ncnc32)cc1
109

Hey, quick one: what's growth for each of these?
1. CN1CCN(Cc2ccc(NC(=O)c3cncc(C#Cc4c(N)ncc5ccc(C#N)cc45)c3)cc2C(F)(F)F)CC1
2. C=C1CCC2C3(C)COC(c4ccc(SC)cc4)OC3CCC2(C)C1C/C=C1/C(=O)OCC1O (stereo not given)
3. CCOc1ccc(Nc2nc(-c3c(C)nc4ncccn34)cs2)cc1

1. 21.2
2. 72.3
3. -60.8

Hey, quick one: what's growth for each of these?
1. CN(CC(=O)N(Cc1ccc(C2CCCCC2)cc1)c1ccc(C(=O)NO)cc1)S(=O)(=O)c1c(F)c(F)c(F)c(F)c1F
2. Cn1c2ccccc2c2c3c(c4c5ccccc5n(CCCCCC#N)c4c21)C(=O)N(O)C3=O
3. Cc1ccc2c(c1)C(=O)/C(=C/c1ccc(OCC(=O)c3ccccc3)cc1)O2
4. Cn1c(=O)c2c(ncn2CC[N+](C)(C)C)n(C)c1=O
5. CCN(CC)CCC(=O)Nc1ccc(Cn2nnc3c2C(=O)c2nnn(Cc4ccc(NC(=O)CCN(CC)CC)cc4)c2C3=O)cc1
6. CCC(=O)Oc1ccc(/C(=C(\C)c2ccccc2)c2ccc(OCCN(CC)CC)cc2)cc1

1. 67.9
2. 62.8
3. 107
4. 103
5. -86.7
6. 74.6

Hey, quick one: what's growth for each of these?
1. CN1CCCCC1CCN1c2ccccc2Sc2ccc(Br)cc21 (stereo not given)
2. CC[C@H](CO)Nc1nc(NCc2ccccc2)n2ncc(C(C)C)c2n1
3. Cc1cc(-c2nc3ccccc3s2)ccc1NC(=O)COc1ccc(Cl)cc1
4. CCCN(CCC)CN(CCC)CCC
5. COc1ccc2[nH]c(=O)c(/C=C/C(=O)c3ccc(Nc4nccc(-c5ccc6ccccc6c5)n4)cc3)cc2c1
6. Nc1cc2nc3ccccc3sc-2cc1=O

[51.5, -27, 110, 116, 104, 104]

Hey, quick one: what's growth for each of these?
1. CCOC(=O)CC(=O)c1c(C)cc(C)cc1C
2. O=C(O)c1ccc2c(c1Sc1ccccc1)C(=O)c1ccccc1C2=O
3. COc1cnc2c(c1)C(=O)c1c-2n(CCCBr)c(=O)c2cc([N+](=O)[O-])ccc12

[117, 112, -26.2]

Hey, quick one: what's growth for each of these?
1. Cc1cc(Nc2nc(-c3cccnc3)nc3ccccc23)n[nH]1
2. COc1ccc(C/C(C)=C(\c2ccc(Cl)cc2)c2ccc(OCCN3CCCCCC3)cc2)cc1
3. COc1cc2nc3cc([N+](=O)[O-])ccc3c(NCCCNCC(C)(C)O)c2cc1OC

-10.2
65.2
-81.2

Hey, quick one: what's growth for each of these?
1. O=C(/C=C/c1ccc(B(O)O)cc1)/C=C/c1ccc(B(O)O)cc1
2. CC(=O)Nc1ccc2c(c1)c(NC(C)=O)nn2C(=O)Nc1ccc(Cc2ccccc2)cc1
3. O=C(Nc1ccc(Oc2ccc(F)cc2)c(Cl)c1)c1cccnc1
4. CNc1cc2nc3cc(NC)c(C)cc3cc2cc1C
5. CN1CCOCCOCCOc2ccccc2NC(=O)c2nc(cnc2N)-c2ccc(cc2)S1(=O)=O
6. CCCCCCCCCCCCCCCC(=O)OCC1OC(n2cnc3c(=S)nc(N)[nH]c32)C(OC(=O)CCCCCCCCCCCCCCC)C1OC(=O)CCCCCCCCCCCCCCC (stereo not given)

1. 36.8
2. 102
3. 120
4. -39.1
5. 27.9
6. 90

Hey, quick one: what's growth for each of these?
1. COc1ccccc1-c1ccc2c(N)c(C(=O)c3ccc4c(c3)OCO4)sc2n1
2. O=C1/C(=C/c2ccc(F)cc2)CN(C(=O)CCN2CCC(=NO)CC2)C/C1=C\c1ccc(F)cc1
3. C=C1CCC2C3(C)COC(c4ccccc4Br)OC3CCC2(C)C1C/C=C1/C(=O)OCC1OC(C)=O (stereo not given)
4. C/C=C/C(N)=O
5. COc1ccc(-c2cc(-c3cccnc3)nc3sc4c(=O)n(-c5ccc(C)cc5)nnc4c23)cc1OC

1: 89.1; 2: -81.9; 3: -76.7; 4: 107; 5: 102

Hey, quick one: what's growth for each of these?
1. O=C(CN1CCN(c2cc3c(cc2F)c(=O)c(C(=O)O)cn3C2CC2)CC1)Nc1cc(=O)[nH]c(=O)[nH]1
2. Cn1c2c(Cl)c(Cl)ccc2c2ccn3c(=O)c4ccccc4nc3c21
3. Nc1c(C(=O)Nc2cccc3c2OCCO3)sc2nc3c(cc12)C(=O)CCC3

1: 110; 2: 100; 3: -3.5

* * *

- Test system: HOP-92 NSCLC
- PROCEDURE_SUMMARY: NCI-60 one-dose screen, 48 h (100 = growth as untreated, 0 = no growth, -100 = all killed)
- TEST_CONDITIONS: 10 µM unless noted
Compounds without any hit were thinned out: in the full panel of roughly 83,000, 20% have a hit. Calls of active or inactive are those of the source. The calls were made as follows: active = growth percent below 10; inactive = the rest.
ENDPOINT: growth

Examples with answers:
CN(C)c1ccc(/C=C\C2=[N+](C)c3ccccc3C2(C)C)cc1
-15.6% (active)
COc1cccc(NC(=O)c2sc3nc4c(cc3c2N)CN(Cc2ccccc2)CC4)c1
42.1% (inactive)
Clc1cccc(Nc2nc(Nc3cnc4ccccc4c3)c3[nH]cnc3n2)c1
7.57% (active)
COc1cnc2c(c1)C(=O)c1c-2n(CCCN2CCNCC2)c(=O)c2cc([N+](=O)[O-])ccc12
22.8% (inactive)
CCCCCCCCCCCCCC(=O)C(C)N (stereo unspecified)
8.22% (active)

Hey, quick one: what's growth for each of these?
1. COc1c(C2CC(=O)Nc3c2cnn3Cc2ccco2)cc2c(c1OC)OCO2 (stereo unspecified)
2. COc1ccc(S(=O)(=O)NCCNc2nccc(-c3c(-c4cccc([N+](=O)[O-])c4)nc4sccn34)n2)cc1
3. CCCCN(CCCC)Cc1c(C)[nH]c2cc(OC)ccc2c1=O
4. O=C1Nc2ccccc2C12CC(c1ccccc1)=NN2 (stereo unspecified)
5. COc1cc(-c2c3c(nc4c2c(C)nn4-c2ccccc2)-c2ccccc2C(=O)C3=O)cc(OC)c1OC
6. COc1ccc2[nH]c(=O)c(/C=C/C(=O)c3ccc(Nc4nccc(-c5ccc6ccccc6c5)n4)cc3)cc2c1
7. COc1ccc2nc3cc(Cl)ccc3c(N3CCN(c4ccnc(N5CCN(C)CC5)n4)CC3)c2c1
8. Cn1c2c(Cl)c(Cl)ccc2c2ccn3c(=O)c4ccccc4nc3c21

1. 48.9% (inactive)
2. 87.5% (inactive)
3. 65.3% (inactive)
4. 59.2% (inactive)
5. 83.7% (inactive)
6. 81.8% (inactive)
7. 59.6% (inactive)
8. 92.7% (inactive)

Hey, quick one: what's growth for each of these?
1. NC(CC(=O)O)C(=O)OCc1ccccc1 (stereo unspecified)
2. O=C1c2cc3c(cc2-c2c1c1cc(F)c(F)cc1c(=O)n2C[C@H](O)CO)OCO3
3. OCC1C2C=CC(C2)C1CO (stereo unspecified)
4. c1ccc(Sc2ncnc3ccccc23)cc1
5. COc1ccc(/C(=C/c2ccc3ccccc3c2)c2nn[nH]n2)cc1OC

86.3% (inactive)
9.43% (active)
60.5% (inactive)
48.9% (inactive)
5.89% (active)

Hey, quick one: what's growth for each of these?
1. COc1ccc(C2CC(=O)Nc3c2c(C)nn3-c2nc3ccccc3[nH]2)cc1 (stereo unspecified)
2. CCOC(=O)c1c2ncccc2n2c(=O)n(-c3ccc(Cl)cc3)nnc12
3. C=C1CCC2C3(C)COC(c4ccc(SC)cc4)OC3CCC2(C)C1C/C=C1/C(=O)OCC1O (stereo unspecified)

89.1% (inactive)
101% (inactive)
81.7% (inactive)
